Test system: Yap1 mRNA
Test: Antisense inhibition of human Yap1 in A-431 cells by cEt gapmers, single dose (Example 3, RTS36584)
Format: cell-based
Conditions: Table 9; A-431 cells, 5,000 cells per well, free uptake, 2,000 nM, approximately 48 hours; RTS36584; normalized to RIBOGREEN; Yap1 mRNA relative to untreated control cells
Strand notation (5' to 3'): a small letter for the sugar, then the base; units joined by * are phosphorothioate-linked, units joined directly phosphodiester-linked; [ ] holds rarer units or linkages, { } end groups; capitals alone tell only the bases. k = constrained ethyl (cEt); [5mC] = 5-methylcytosine; d = 2'-deoxy (DNA)
Hi, to clarify the labels: MET covers YAP1 (% UTC) from 20 % UTC upward, NOT MET covers anything below 20 % UTC.

The following substances have reported results that may help.
> print(dat)
                                  substance  discrete.label
1  958771 (antisense k[5mC]*kT*kA*d[5mC]*dA*dG*dA*d[5mC]*dG*dA*dA*dT*dT*k[5mC]*k[5mC]*kA) [Compound 958771]         NOT MET
2  958601 (k[5mC]*k[5mC]*kT*dT*dT*dA*dA*dA*dG*dG*d[5mC]*dA*d[5mC]*kT*kA*k[5mC]; antisense) [Compound 958601]         NOT MET
3  958521 (kT*kT*k[5mC]*d[5mC]*dA*dA*dT*dT*d[5mC]*dA*dT*d[5mC]*dA*kG*kA*kT; antisense) [Compound 958521]         NOT MET

Input: Has 958591 (kT*k[5mC]*kA*d[5mC]*dA*dG*dT*dA*d[5mC]*dT*dG*d[5mC]*dT*kA*k[5mC]*kA; antisense) [Compound 958591] a recorded YAP1 (% UTC) greater than or equal to 20 % UTC?
Output: MET

Input: Is it the case that 958516 (k[5mC]*kT*kG*d[5mC]*dA*dG*dA*d[5mC]*dT*dG*d[5mC]*d[5mC]*d[5mC]*k[5mC]*kA*kA; antisense) [Compound 958516] has YAP1 (% UTC) reaching or exceeding 20 % UTC?
Output: MET

Input: hey, is YAP1 (% UTC) for this one >= 20 % UTC? 958611 (antisense kG*kA*kG*d[5mC]*dA*dT*dG*d[5mC]*dT*d[5mC]*dT*dT*dA*k[5mC]*kA*kT) [Compound 958611]
Output: MET
